# Tested on: GIST-T1/10R
# test: Cell proliferation assay (Cell Counting Kit-8)
# Format: cell-based, human
# cond: Homo sapiens, GISTT1; cell viability after 72 hours of treatment; read-out: IC50 T1-10R
property.name: IC50

// known answers, use as guide
compound	property.name	experimental.value
CCN(CC)CCNC(=O)c1c(C)[nH]c(/C=C2\C(=O)Nc3ccc(F)cc32)c1C	IC50	> 10 µM
CO[C@H]1C[C@@H]2CC[C@@H](C)[C@@](O)(O2)C(=O)C(=O)N2CCCC[C@H]2C(=O)O[C@H]([C@H](C)C[C@@H]2CC[C@@H](OC(=O)C(C)(CO)CO)[C@H](OC)C2)CC(=O)[C@H](C)/C=C(\C)[C@@H](O)[C@@H](OC)C(=O)[C@H](C)C[C@H](C)/C=C/C=C/C=C/1C	IC50	> 100 µM
O=C1CCc2c(ccc3ccccc23)O1	IC50	> 10 µM
Cc1cn(-c2cc(NC(=O)c3ccc(C)c(Nc4nccc(-c5cccnc5)n4)c3)cc(C(F)(F)F)c2)cn1	IC50	> 10 µM
CC(C)[C@]12O[C@H]1[C@@H]1O[C@]13[C@]1(O[C@H]1C[C@H]1C4=C(CC[C@@]13C)C(=O)OC4)[C@@H]2O [Triptolide]	IC50	< 0.025 µM

Entry C#Cc1cccc(Nc2ncnc3cc(OCCOC)c(OCCOC)cc23)c1 ; assay system GIST-T1/10R; IC50 recorded at > 10 µM

Query O=c1c(-c2ccc(O)cc2)coc2cc(O)cc(O)c12 on GIST-T1/10R; IC50 returned: > 50 µM

Record Clc1ccc(Nc2nnc(Cc3ccncc3)c3ccccc23)cc1 ; system GIST-T1/10R; IC50 = > 10 µM

The compound Cc1ccc(NC(=O)c2ccc(CN3CCN(C)CC3)cc2)cc1Nc1nc(-c2cccnc2)cs1 on GIST-T1/10R: IC50 was 5 µM

The compound CCc1c2c(nc3ccc(OC(=O)N4CCC(N5CCCCC5)CC4)cc13)-c1cc3c(c(=O)n1C2)COC(=O)[C@]3(O)CC , when measured on GIST-T1/10R, yielded IC50 of 5 µM
